Kindly state TGI for each of the entries shown.
tested on: SK-OV-3 ovarian; assay: NCI tumour cell line growth inhibition, 48 h
One number for each entry, in µM.

For each of the compounds below, note its TGI.
1. O=S(=O)(Nc1ccc(F)c(Cl)c1)c1ccc(-c2cnc(C3CC3)o2)cc1
2. C[C@@H]1COCCN1c1cc(C2([S@@](C)(=N)=O)CC2)nc(-c2ccnc3[nH]ccc23)n1
3. Nc1ccc(-c2nc3ccccc3s2)cc1C#Cc1ccccc1
4. CCCCCCCC(=O)OCC(=O)[C@]1(O)Cc2c(O)c3c(c(O)c2[C@@H](OC2CC(N)C(O)C(C)O2)C1)C(=O)c1c(OC)cccc1C3=O (some centres not stated)
5. C[C@]12CCNC(=O)C=C1CC[C@@H]1C2CC[C@@]2(C)C1CC[C@@H]2OC(=O)COc1ccc(N(CCCl)CCCl)cc1 (some centres not stated)
6. Nc1nc(N)c2cc(Sc3cccc(C(F)(F)F)c3)ccc2n1

Data returned:
14.4
27.4
60.7
0.879
21.7
21

For each of the compounds below, note its TGI.
1. CC12CCC3c4cc(Br)c(O)c(Br)c4CCC3C1CCC2O (configuration not stated)
2. COC(=O)/C=C\C(C#N)(C#N)N=Cc1sccc1C
3. COc1ccc(C2C=C(c3ccc(Cl)cc3)N=C3SC=C(C)N32)c(Br)c1 (configuration not stated)
4. Cc1ccc(-c2nc([P+](c3ccccc3)(c3ccccc3)c3ccccc3)c(Nc3ccccc3)o2)cc1

Data returned:
1. 51.4
2. 34.1
3. 12.6
4. 3.08

For each of the compounds below, note its TGI.
1. c1ccc2c(c1)ccn1ccc3c4ccccc4nc-3c21
2. N#Cc1c(-c2ccc(Cl)cc2)c2c(N=Nc3c(O)ccc4ccccc34)[nH]nc2[nH]c1=O
3. ClCc1cccc(CSc2ncnc3c2ncn3Cc2cccc(CCl)c2)c1

Data returned:
2.9
1.58
4.97

###

Kindly state TGI for each of the entries shown.
tested on: SF-268 CNS; test: NCI tumour cell line growth inhibition, 48 h
Give bare numbers, in µM.

# example entries with known answers
>  <Compound smiles>
ClCc1cccc(CSc2ncnc3c2ncn3Cc2cccc(CCl)c2)c1

>  <Target or test system>
SF-268 CNS

>  <Assay value>
4.91

$$$$
>  <Compound smiles>
N#Cc1c(N)nc(NCc2ccccc2)c(C#N)c1-c1ccc(Cl)cc1Cl

>  <Target or test system>
SF-268 CNS

>  <Assay value>
1.18

$$$$

Data request: Return reported TGI; argument: O=C1c2ccccc2C(=O)c2sc(Nc3ccccc3Cl)nc21
Data returned: 23.7

###

test system: HOP-92 NSCLC; test: NCI tumour cell line growth inhibition, 48 h
Measured attribute: TGI

# example entries with known answers
>  <Compound smiles>
CCOC(=O)C(O)(C(=O)OCC)c1cc(C(C)(C)C)c(O)c(C(C)(C)C)c1

>  <Assay value>
> 100 µM

$$$$
>  <Compound smiles>
COc1ccc2c3c([nH]c2c1)CCN(Cc1ccccc1)C3

>  <Assay value>
25.6 µM

$$$$
>  <Compound smiles>
Cc1ccc(-c2nc(-c3cn(C)c4ncccc34)cs2)cc1

>  <Assay value>
23.8 µM

$$$$

For each of the compounds below, note its TGI.
1. Clc1ccccc1C(Nc1ncccn1)Nc1ncccn1
2. N#Cc1ccc2cc3c(cc2c1)OCO3
3. O=C(CC(=O)c1cccc(Cl)c1)c1cccc(Cl)c1

Data returned:
1. > 100 µM
2. > 100 µM
3. > 100 µM
